System: HCT-116 colon
assayOverview: NCI-60 one-dose screen, 48 h
conditionDetails: 10 µM unless noted
This is part of a sample that, as a whole, favours compounds with a hit. Of some 83,000 tested, about 20% had one in any assay. Activity calls are given as the source filed them. The calls were made as follows: active = growth percent below 10; inactive = the rest.
Possible outcomes: yes (1) (active), no (0) (inactive)

molecule	classLabel
Clc1ccc(-c2nc3ccc(/C(=N\N=C\c4ccccc4)c4ccccc4)cc3[nH]2)cc1	no (0)
Oc1ccc(-c2nnc(SCc3ccc(O)c4ncccc34)n2-c2ccccc2)cc1	no (0)
C=CCn1c(SCC(=O)Nc2cccc(C(=O)/C=C/c3ccc(Cl)cc3)c2)nc2ccccc2c1=O	no (0)
Oc1ccccc1-c1nnc(SCc2ccc(O)c3ncccc23)n1-c1ccccc1	no (0)
NS(=O)(=O)Oc1ccc2nc(Nc3ccc(F)c(F)c3)ccc2c1	no (0)
CCOP(=O)(OCC)OC[C@]12CCC(C)(C)C[C@H]1C1=CC[C@@H]3[C@@]4(C)C/C(=C\c5cccnc5)[C@H](OP(=O)(OCC)OCC)C(C)(C)[C@@H]4CC[C@@]3(C)[C@]1(C)CC2	no (0)
c1ccc(-c2n(Cc3ccc4ccccc4c3)c3c4ccccc4c4ccccc4c3[n+]2Cc2ccc3ccccc3c2)cc1	yes (1)
C/C(=C(/C)C1CC1CCN(C(=O)c1ccccn1)S(=O)(=O)c1ccc(C)cc1)C1CCCCC1 (stereo not drawn)	no (0)
